- METHOD DESCRIPTION: Equilibrium solubility of 4-iodo-3-nitrobenzamide, overnight at 25° C., measured by HPLC
- Format: physicochemical
- CONDITIONS: purified water containing mixtures of solubilizers, 25 °C, aqueous with cosolvent or surfactant or cyclodextrin, thermodynamic from solid, 10% EtOH/10% Polysorbate 80, 25° C.; read-out: Solubility
- Protocol: Excess 4-iodo-3-nitrobenzamide (“BA”) was equilibrated overnight (>16 hr) at 25° C. in purified water, 0.01M HCl (pH2), 0.01M NaOH ([…]), and 0.9% NaCl. Following dilution, the solubility of the drug was measured by HPLC. […] Excess 4-iodo-3-nitrobenzamide was equilibrated overnight (>16 hr) at 25° C. in solutions in purified water containing mixtures of solubilizers. Following dilution, the solubility of the drug was measured by HPLC.
ASSAY METRIC: solubility
Include the unit right after the number.

Input line: Given NC(=O)c1ccc(I)c([N+](=O)[O-])c1 [BA, 4-iodo-3-nitrobenzamide] , state its recorded solubility.
Output line: 2300 µg/mL

---

- METHOD DESCRIPTION: Equilibrium solubility of 4-iodo-3-nitrobenzamide, overnight at 25° C., measured by HPLC
- Format: physicochemical
- CONDITIONS: 100% ethanol, 25 °C, organic solvent or mixture, thermodynamic from solid, Ethanol 100%, 25° C.; read-out: Solubility
ASSAY METRIC: solubility (mg/mL)
Only the number, expressed in mg/mL, is required.

Input line: Look at this compound and give its reported solubility. NC(=O)c1ccc(I)c([N+](=O)[O-])c1 [BA, 4-iodo-3-nitrobenzamide]
Output line: 14.1

---

- METHOD DESCRIPTION: Equilibrium solubility of 4-iodo-3-nitrobenzamide, overnight at 25° C., measured by HPLC
- Format: physicochemical
- CONDITIONS: 50% Polysorbate 80/50% EtOH, 25 °C, organic solvent or mixture, thermodynamic from solid, 50% Polysorbate 80/50% EtOH, 25° C.; read-out: Solubility
ASSAY METRIC: solubility (mg/mL)
Provide the reading as a plain figure in mg/mL.

Input line: Endpoint output: solubility of NC(=O)c1ccc(I)c([N+](=O)[O-])c1 [BA, 4-iodo-3-nitrobenzamide] . Value?
Output line: 18.6

---

- METHOD DESCRIPTION: Equilibrium solubility of 4-iodo-3-nitrobenzamide, overnight at 25° C., measured by HPLC
- Format: physicochemical
- CONDITIONS: purified water containing mixtures of solubilizers, 25 °C, aqueous with cosolvent or surfactant or cyclodextrin, thermodynamic from solid, 5% Polysorbate 80/10% EtOH/40% PEG 400, 25° C.; read-out: Solubility
ASSAY METRIC: solubility (µg/mL)
Respond numerically; units are µg/mL and should not be typed.

Input line: I'd like to know its solubility. The compound in question is NC(=O)c1ccc(I)c([N+](=O)[O-])c1 [BA, 4-iodo-3-nitrobenzamide]
Output line: 1230

---

- METHOD DESCRIPTION: Equilibrium solubility of 4-iodo-3-nitrobenzamide, overnight at 25° C., measured by HPLC
- Assay type: physicochemical
- CONDITIONS: purified water containing mixtures of solubilizers, 25 °C, aqueous with cosolvent or surfactant or cyclodextrin, thermodynamic from solid, 10% glycofurol, 40% PEG 400, 25° C.; read-out: Solubility
ASSAY METRIC: solubility (µg/mL)
# value in µg/mL; strip the unit string

Input line: What does the data say about its solubility? Entry: NC(=O)c1ccc(I)c([N+](=O)[O-])c1 [BA, 4-iodo-3-nitrobenzamide]
Output line: 6120

Source: patent US20100160442A1
